assay: Equilibrium solubility of APIs in aqueous and biorelevant media; format: physicochemical; settings: HCl solution, simulated gastric fluid, thermodynamic from solid, pH 1.0 HCl, 37 °C
The entries below are paired with their reported solubility thermodynamic at 24 h.

Query solubility thermodynamic at 24 h for CCCSc1nc(N[C@@H]2C[C@H]2c2ccc(F)c(F)c2)c2nnn([C@@H]3C[C@H](OCCO)[C@@H](O)[C@H]3O)c2n1 18 µg/mL

Consider the compound O=C(NC[C@H]1CN(c2ccc(N3CCOCC3=O)cc2)C(=O)O1)c1ccc(Cl)s1 and give its recorded solubility thermodynamic at 24 h. 6.84 µg/mL

###

assay: Equilibrium solubility of APIs in aqueous and biorelevant media; format: physicochemical; details: pH 1.6 FaSSGF, 37 °C
Measured endpoint: solubility thermodynamic at 24 h (µg/mL)
Write the number in µg/mL without appending the unit.

- Mol smiles: "O=C(NC[C@H]1CN(c2ccc(N3CCOCC3=O)cc2)C(=O)O1)c1ccc(Cl)s1"
  solubility thermodynamic at 24 h (µg/mL): 7.5

Next, consider the following compound.
Using known records, supply solubility thermodynamic at 24 h for CCCSc1nc(N[C@@H]2C[C@H]2c2ccc(F)c(F)c2)c2nnn([C@@H]3C[C@H](OCCO)[C@@H](O)[C@H]3O)c2n1 14.2

###

test: Caco-2 permeability; assay type: in vitro ADME; settings: human, Apical pH : Basolateral pH 7.4 : 7.4, Passive&Active, Table S6 source 'Measured'
Measured endpoint: Papp (nm/s)
Numeric only. Scale: nm/s

Answer with reported Papp of CC(C)NCC(O)COc1cccc2ccccc12 (stereo not shown) [Propranolol] 294

###

The compounds listed here are annotated with their solubility thermodynamic at 24 h.
assay: Equilibrium solubility of APIs in aqueous and biorelevant media; format: physicochemical; settings: phosphate buffer solution (PBS), pH 6.5 PBS, 37 °C
Quick reminder: number only, in µg/mL, skip the unit.

- Mol smiles: "CCCSc1nc(N[C@@H]2C[C@H]2c2ccc(F)c(F)c2)c2nnn([C@@H]3C[C@H](OCCO)[C@@H](O)[C@H]3O)c2n1"
  solubility thermodynamic at 24 h, µg/mL: 5.97

Consider the compound O=C(NC[C@H]1CN(c2ccc(N3CCOCC3=O)cc2)C(=O)O1)c1ccc(Cl)s1 . State its measured solubility thermodynamic at 24 h. 5.84

###

assay: Equilibrium solubility of APIs in aqueous and biorelevant media; format: physicochemical; conditions: phosphate buffer solution (PBS), aqueous buffer, thermodynamic from solid, pH 5.0 PBS, 37 °C
Measured endpoint: solubility thermodynamic at 24 h (µg/mL)
# value in µg/mL; strip the unit string

- Mol smiles: "CCCSc1nc(N[C@@H]2C[C@H]2c2ccc(F)c(F)c2)c2nnn([C@@H]3C[C@H](OCCO)[C@@H](O)[C@H]3O)c2n1"
  Uom: "µg/mL"
  Result number: 6.35

Let me know recorded solubility thermodynamic at 24 h for O=C(NC[C@H]1CN(c2ccc(N3CCOCC3=O)cc2)C(=O)O1)c1ccc(Cl)s1 , thanks. 4.85

###

Quick reference: solubility thermodynamic at 24 h of the listed items.
test: Equilibrium solubility of APIs in aqueous and biorelevant media; type: physicochemical; conditions: phosphate buffer solution (PBS), pH 8.0 PBS, 37 °C
Give the value in µg/mL but do not write µg/mL after it.

- Mol smiles: "CCCSc1nc(N[C@@H]2C[C@H]2c2ccc(F)c(F)c2)c2nnn([C@@H]3C[C@H](OCCO)[C@@H](O)[C@H]3O)c2n1"
  solubility thermodynamic at 24 h, µg/mL: 5.52

Next compound, solubility thermodynamic at 24 h to be filled in.
Read off the recorded solubility thermodynamic at 24 h for O=C(NC[C@H]1CN(c2ccc(N3CCOCC3=O)cc2)C(=O)O1)c1ccc(Cl)s1 5.87

###

assay: physchem; conditions: aqueous buffer
Measured endpoint: solubility (µg/mL)
Report as a plain number; the unit µg/mL is understood.

Provide solubility value for the following compound: O=C(NC[C@H]1CN(c2ccc(N3CCOCC3=O)cc2)C(=O)O1)c1ccc(Cl)s1 5

###

assay: Equilibrium solubility of APIs in aqueous and biorelevant media; assay type: physicochemical; conditions: HCl solution, simulated gastric fluid, thermodynamic from solid, pH 2.0 HCl, 37 °C
Overview of reported solubility thermodynamic at 24 h across a group of compounds:

- Mol smiles: "CCCSc1nc(N[C@@H]2C[C@H]2c2ccc(F)c(F)c2)c2nnn([C@@H]3C[C@H](OCCO)[C@@H](O)[C@H]3O)c2n1"
  Result: "8.04 µg/mL"

Read off the recorded solubility thermodynamic at 24 h for O=C(NC[C@H]1CN(c2ccc(N3CCOCC3=O)cc2)C(=O)O1)c1ccc(Cl)s1 8.18 µg/mL
